biological target: rat FAAH (Rattus norvegicus); construct: crude homogenate; experiment: Assay Method 2: FAAH assay, 3H-anandamide hydrolysis in homogenate of cells transfected with rat FAAH; details: cell homogenate, 3H-AEA 80 nM, 1 h at rt, average of results
Sequence (P97612 whole entry): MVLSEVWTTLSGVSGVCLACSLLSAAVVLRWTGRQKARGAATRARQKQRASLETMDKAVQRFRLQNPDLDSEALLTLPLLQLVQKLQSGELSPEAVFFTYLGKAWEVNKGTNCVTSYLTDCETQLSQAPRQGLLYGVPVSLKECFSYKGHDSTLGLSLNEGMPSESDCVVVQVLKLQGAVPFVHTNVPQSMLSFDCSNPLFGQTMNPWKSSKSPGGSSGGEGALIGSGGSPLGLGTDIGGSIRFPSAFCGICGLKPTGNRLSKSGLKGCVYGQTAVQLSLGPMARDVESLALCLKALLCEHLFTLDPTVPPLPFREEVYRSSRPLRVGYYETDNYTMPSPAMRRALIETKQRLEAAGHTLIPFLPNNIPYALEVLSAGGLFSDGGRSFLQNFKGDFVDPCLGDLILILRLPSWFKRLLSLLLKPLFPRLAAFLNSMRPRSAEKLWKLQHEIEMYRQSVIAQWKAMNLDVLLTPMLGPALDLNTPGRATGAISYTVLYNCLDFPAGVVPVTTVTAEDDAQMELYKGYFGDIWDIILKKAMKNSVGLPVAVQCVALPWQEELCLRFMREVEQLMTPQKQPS
Counter-ions that a name gives are not always drawn.
recorded endpoint: log10 IC50 (log10 of the value in nM)
Response schema: value (number) is log10 of IC50 in units of nM.

molecule | log10 IC50
O=C(Nc1cccnc1)N1CCC(CCc2ccc3c(c2)OC(F)(F)O3)C1 (stereo not drawn) | 3.85
O=C(Nc1cccnc1)N1CC(CCOc2ccc3ccccc3c2)C1 [Example 35, trifluoroacetate salt] | 2.54
O=C(Nc1ccc(-n2nccn2)nc1)N1CC(CCOc2cccc(Oc3ccc(Cl)cc3)c2)C1 | 1.00
O=C(Nc1cccnc1)N1CC(COc2cccc(OCc3ccccc3)c2)C1 | 2.97
O=C(Nc1cccnc1)N1CCC(CCc2cccc(Oc3ccc(F)cc3)c2)C1 (stereo not drawn) | 1.68
O=C(Nc1noc2ccccc12)N1CCC(Cc2ccc3c(c2)OC(F)(F)O3)C1 (stereo not drawn) | 2.89

Report log10 IC50, nothing else, for this molecule: O=C(Nc1cccnc1)N1CC(CCOc2cccc(C(F)(F)F)c2)C1
2.79

Report log10 IC50, nothing else, for this molecule: O=C(Nc1cccnc1)N1CC(CCOc2cccc(OC(F)(F)F)c2)C1
2.95

Report log10 IC50, nothing else, for this molecule: O=C(Nc1cccc2nccn12)N1CCC(Cc2cccc(Oc3ccc(F)cc3)c2)C1 (stereo not drawn)
1.85

Report log10 IC50, nothing else, for this molecule: C#Cc1cccc(OCC2CN(C(=O)Nc3cccnc3)C2)c1
3.20

Report log10 IC50, nothing else, for this molecule: O=C(Nc1cnccc1Cl)N1CCC(COc2ccc(Cl)c(Cl)c2)C1 (stereo not drawn)
1.52

Report log10 IC50, nothing else, for this molecule: C#Cc1cccc(OCCC2CN(C(=O)Nc3cccnc3)C2)c1 [Example 37, trifluoroacetate salt]
2.91

Report log10 IC50, nothing else, for this molecule: O=C(Nc1cccnc1)N1CCC(COc2cccc(Oc3ccc(Cl)cc3)c2)C1 (stereo not drawn)
1.79

Report log10 IC50, nothing else, for this molecule: O=C(Nc1cnccc1Cl)N1CC(CCOCc2ccc(Cl)cc2)C1
2.87

* * *

molecular target: rat FAAH (Rattus norvegicus); construct: expressed in transfected cells; crude homogenate; test: Assay Method 2: FAAH assay, 3H-anandamide hydrolysis in homogenate of cells transfected with rat FAAH; assay type: biochemical; details: cell homogenate, 3H-AEA 80 nM, 1 h at rt, average of results
pIC50: −log10 of the molar value.
Kindly return True if reported pIC50 is no lower than 6; return False if it is lower.

molecule | label
O=C(Nc1cnccc1Cl)N1CCC(CCOc2cccc(OC(F)(F)F)c2)C1 (stereo not drawn) | False
O=C(Nc1cnccc1Cl)N1CC[C@H](COc2cccc(Oc3ccc(Cl)cc3)c2)C1 | True
O=C(Nc1cnccc1Cl)N1CCC(CCOc2cccc(Oc3ccc(Cl)cc3)c2)C1 (stereo not drawn) | True
O=C(Nc1cnccc1Cl)N1CCC(CCc2ccc3c(c2)OC(F)(F)O3)C1 (stereo not drawn) | True
O=C(Nc1cccnc1)N1CC(CCOCc2ccccc2)C1 | False

Please tell me: is the molecule O=C(Nc1cccnc1)N1CC(CCOc2ccc(Cl)c(Cl)c2)C1 at or over 6 in terms of pIC50?
True

Please tell me: is the molecule O=C(Nc1cnccc1Cl)N1CCC(Cc2cccc(Oc3ccc(F)cc3)c2)C1 (stereo not drawn) at or over 6 in terms of pIC50?
True

Please tell me: is the molecule O=C(Nc1cnccc1Cl)N1CC(CCOc2cccc(Oc3ccc(Cl)cc3)c2)C1 at or over 6 in terms of pIC50?
True

Please tell me: is the molecule CS(=O)(=O)c1ccc(Oc2cccc(OCCC3CN(C(=O)Nc4cccnc4)C3)c2)cc1 at or over 6 in terms of pIC50?
True

Please tell me: is the molecule O=C(Nc1cccnc1)N1CC(COc2ccc(-c3ccccc3)cc2)C1 at or over 6 in terms of pIC50?
False

Please tell me: is the molecule O=C(Nc1cncc2ccccc12)N1CC(CCOc2cccc(Oc3ccc(Cl)cc3)c2)C1 at or over 6 in terms of pIC50?
True

Please tell me: is the molecule CS(=O)(=O)c1ccc(Oc2cccc(OCC3CN(C(=O)Nc4cccnc4)C3)c2)cc1 at or over 6 in terms of pIC50?
True

* * *

Attribute: IC50
molecular target: FAAH (Homo sapiens); assay: Assay Method 1: FAAH assay, 3H-anandamide hydrolysis in homogenate of cells transfected with human FAAH; type: biochemical; set-up: expressed in transfected cells; crude homogenate (T84 cell pellets named as alternative); settings: cell homogenate, 3H-AEA 80 nM, 1 h at rt, average of results
Where a name gives a salt, the structure may show the parent alone.
Reply with just the number (in µM).

compound | IC50 [µM]
O=C(Nc1cccnc1)N1CC(COc2cccc(C(F)(F)F)c2)C1 [Example 8, trifluoroacetate salt] | 2.4

Report IC50, nothing else, for this compound: O=C(Nc1cnccc1Cl)N1CC(CCOCc2ccc(Cl)cc2)C1 [Example 65]
0.275

Report IC50, nothing else, for this compound: O=C(Nc1cnccc1Cl)N1CCC(CCOc2ccc(OC(F)(F)F)cc2)C1 (stereo not drawn) [Example 62]
1.3

Report IC50, nothing else, for this compound: O=C(Nc1cnccc1Cl)N1CC[C@H](COc2cccc(Oc3ccc(Cl)cc3)c2)C1 [Example 55]
0.016

Report IC50, nothing else, for this compound: CS(=O)(=O)c1ccc(Oc2cccc(OCC3CCN(C(=O)Nc4cnccc4Cl)C3)c2)cc1 (stereo not drawn) [Example 50]
0.009

Report IC50, nothing else, for this compound: C#Cc1cccc(OCC2CN(C(=O)Nc3cccnc3)C2)c1 [Example 11]
0.37

Report IC50, nothing else, for this compound: O=C(Nc1cccnc1)N1CC(COc2ccc(Cl)c(Cl)c2)C1 [Example 21]
1

Report IC50, nothing else, for this compound: CS(=O)(=O)c1ccc(Oc2cccc(OCC3CCN(C(=O)Nc4cccnc4)C3)c2)cc1 (stereo not drawn) [Example 52]
0.1

Report IC50, nothing else, for this compound: O=C(Nc1cnccc1Cl)N1CC(CCOc2cccc(Oc3ccc(Cl)cc3)c2)C1 [Example 28]
0.001

Report IC50, nothing else, for this compound: O=C(Nc1cccnc1)N1CCC(Cc2cccc(Oc3ccc(F)cc3)c2)C1 (stereo not drawn) [Example 74]
1.2

Report IC50, nothing else, for this compound: O=C(Nc1cnccc1Cl)N1CC[C@@H](COc2cccc(Oc3ccc(Cl)cc3)c2)C1 [Example 56]
0.004

Report IC50, nothing else, for this compound: O=C(Nc1cccnc1)N1CCC(CCOc2ccc(Cl)c(Cl)c2)C1 (stereo not drawn) [Example 53]
6

Report IC50, nothing else, for this compound: O=C(Nc1cccnc1)N1CC(CCOc2cccc(Oc3ccc(OC(F)(F)F)cc3)c2)C1 [Example 29]
0.053

Report IC50, nothing else, for this compound: O=C(Nc1cccnc1)N1CC(CCOc2ccc(Cl)c(Cl)c2)C1 [Example 34]
0.03

Report IC50, nothing else, for this compound: O=C(Nc1cnccc1Cl)N1CCC(CCOc2cccc(OC(F)(F)F)c2)C1 (stereo not drawn) [Example 61]
1.6

* * *

Target: FAAH (Homo sapiens, UniProt O00519)
Sequence (O00519 1-579): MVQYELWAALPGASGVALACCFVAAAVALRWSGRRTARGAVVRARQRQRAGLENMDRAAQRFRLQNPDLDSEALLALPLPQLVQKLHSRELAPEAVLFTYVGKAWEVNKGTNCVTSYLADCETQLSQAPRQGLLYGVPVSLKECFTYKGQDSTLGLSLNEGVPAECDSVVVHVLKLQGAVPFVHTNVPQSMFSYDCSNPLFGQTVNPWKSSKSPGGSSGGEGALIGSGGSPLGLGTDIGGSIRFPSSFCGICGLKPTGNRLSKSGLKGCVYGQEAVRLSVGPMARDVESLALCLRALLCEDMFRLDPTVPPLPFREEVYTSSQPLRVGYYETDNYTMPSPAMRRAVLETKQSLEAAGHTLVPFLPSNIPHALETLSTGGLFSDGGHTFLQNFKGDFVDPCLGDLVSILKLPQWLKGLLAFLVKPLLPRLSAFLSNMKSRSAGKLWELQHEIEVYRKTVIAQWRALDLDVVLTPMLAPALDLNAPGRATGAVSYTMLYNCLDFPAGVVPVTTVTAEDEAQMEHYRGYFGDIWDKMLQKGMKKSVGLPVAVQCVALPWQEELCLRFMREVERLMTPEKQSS
Test: Assay Method 1: FAAH assay, 3H-anandamide hydrolysis in homogenate of cells transfected with human FAAH
Conditions: cell homogenate, 3H-AEA 80 nM, 1 h at rt, average of results
recorded endpoint: pIC50
Remember the convention: pIC50 equals -log10 of concentration in molar.

molecule | assayed system | pIC50
O=C(Nc1cccnc1)N1CCC(CCc2cccc(Oc3ccc(F)cc3)c2)C1 (stereo not drawn) | FAAH (Homo sapiens, UniProt O00519) | 7.24
O=C(Nc1cccnc1)N1CC(CCOc2ccc(Cl)c(C(F)(F)F)c2)C1 | FAAH (Homo sapiens, UniProt O00519) | 6.15

Report pIC50, nothing else, for this molecule: O=C(Nc1cccnc1)N1CC(COc2ccc3cccc(Cl)c3n2)C1
5.89

Report pIC50, nothing else, for this molecule: CCCCOc1cccc(OCCC2CN(C(=O)Nc3cccnc3)C2)c1
7.47
